Overview of reported GI50 across a group of compounds:
# Tested on: SF-295
# assayProcedure: NCI tumour cell line growth inhibition, 48 h
Calls of active or inactive are those of the source. Cut-off read from the data, not from the text of the source: active = GI50 up to about 1.1 µM and inactive = higher.
measuredMetric: GI50

                                   compound               result
0  COc1ccc(N2C(=O)C(=O)C3(CCCCC3)C2=O)c2ccccc12   > 10 µM (inactive)
1  [N-]=[N+]=CC(=O)C1CCN(c2ccccc2)C1=O (centres undefined)   > 10 µM (inactive)
2  CC#CC(O)(C(=O)OC1CCC2CCC1N2C)C1CCCC1 (centres undefined)  > 100 µM (inactive)
3            Cc1nn2c(nc1=O)sc1ccc3ccccc3c12  > 100 µM (inactive)

---

# Tested on: XF498
# assayProcedure: NCI tumour cell line growth inhibition, 48 h
The source made the active and inactive calls. No stated cut-off is given here; in the data, active = GI50 up to about 1.1 µM and inactive = higher.
Labels: 1 for active, 0 for inactive

In [3]: df
Out[3]:
                                   molecule  group
0               O=CCCCC(Sc1ccccc1)Sc1ccccc1      0
1          O=C(O)CSc1nnc(-c2ccc(O)cc2)[nH]1      0
2  C=C(c1nc2ccc(Cl)cc2[nH]c1=O)C(O)c1ccc(C(O)C(=O)c2nc3ccc(Cl)cc3[nH]c2=O)cc1 (stereo not given)      0
3  C=C1COC(O)(C2OCOC(C3CC(=O)NC(=O)C3)C2O)C1C (stereo not given)      1
4        CCOC(=O)/C(=C/c1ccc(Cl)cc1)N(CC)CC      0
5  NC1=NN(c2ccccc2)C(=O)C1/C(=N\NC(=O)c1cc2ccccc2cc1O)C(=O)Nc1ccc(Cl)cc1 (stereo not given)      0
6  CC(=O)OC(/C=C1/C=CC(=O)O1)COC(=O)c1ccccc1 (stereo not given)      0
7               CC1(C)C(=O)C(=Cc2ccco2)C1=O      0
8  Nc1ccn(C2OC(COP(=O)(O)Oc3ccccc3)C(O)C2O)c(=O)n1 (stereo not given)      1
9  CCN(CC)c1ccc(C(=C2C=CC(=[N+](CC)CC)C=C2)c2ccccc2)cc1      1

---

Overview of reported GI50 across a group of compounds:
# System: Malme-3M
# assayProcedure: NCI tumour cell line growth inhibition, 48 h
Activity calls are given as the source filed them. Rule as the data show it: active = GI50 up to about 1.1 µM and inactive = higher.
measuredMetric: GI50

compound	result
C/C(CCOC1CCCCO1)=C(\C)[Si](C)(C)C (centres undefined)	> 100 µM (inactive)
Brc1ccc2[nH]cc(-c3csc(-c4c[nH]c5ccc(Br)cc45)n3)c2c1	1.56 µM (inactive)
O=[N+]([O-])c1ccc2nc(/C(=N/Nc3ccccc3)C(O)c3ccc(C(O)/C(=N\Nc4ccccc4)c4nc5ccc([N+](=O)[O-])cc5nc4O)cc3)cnc2c1 (centres undefined)	> 100 µM (inactive)
CC(C)=NN/C(=N\c1ccc(Cl)cc1)NS(=O)(=O)c1ccc(Oc2cccc(Cl)c2C#N)cc1	> 100 µM (inactive)
C=CCn1c(-c2cc(C(C)(C)C)c(O)c(C(C)(C)C)c2)cs/c1=N\C(P(=O)(O)O)P(=O)(O)O	> 100 µM (inactive)
O=C(/C(=N/Nc1cn[nH]c(=O)c1Cl)c1ccccc1)c1ccccc1	52.7 µM (inactive)
CC(C)[S+]1C2=C(CC(C)(C)CC2=O)[N-]c2ccccc21 (centres undefined)	> 100 µM (inactive)
Cc1ccc(O)c(-c2cc(-c3cccc(Cl)c3)c(C#N)c(N)n2)c1	17.5 µM (inactive)
COC(CNC(=O)C(C)NC(=O)CCc1ccccc1)OC (centres undefined)	> 100 µM (inactive)

---

# System: RXF 393
# assayProcedure: NCI tumour cell line growth inhibition, 48 h
Active and inactive are the calls of the source. Rule as the data show it: active = GI50 up to about 1.1 µM and inactive = higher.
measuredMetric: GI50

compound	measuredMetric	result
O=c1oc2ccccc2cc1-c1nc2ccc([N+](=O)[O-])cc2o1	GI50	> 100 µM (inactive)
CC(=O)Oc1ccc(/C=C/C(=O)OCCCOC(=O)/C=C/c2ccc(OC(C)=O)c(OC(C)=O)c2)cc1OC(C)=O	GI50	> 100 µM (inactive)
COc1c(-c2ccc3c(c2)OCO3)oc2cc(O)cc(O)c2c1=O	GI50	14.9 µM (inactive)
Clc1ccc(-c2nnc(-c3c(Cl)c(Cl)c(Cl)c(Cl)c3-c3nc4ccccc4[nH]3)o2)cc1	GI50	40.7 µM (inactive)
O=C1c2[nH]c3ccc(Br)cc3c2CCN1Cc1ccc(Cl)cc1	GI50	16.9 µM (inactive)
C[C@H](C1CC2(C)OC2(C)C(=O)O1)[C@H]1CC[C@H]2[C@@H]3[C@@H]4O[C@@H]4[C@@]4(O)CC=CC(=O)[C@]4(C)[C@H]3CC[C@]12C (stereo partly drawn)	GI50	9.71 µM (inactive)
CC(C)(CC(O)C#N)/[N+]([O-])=[N+](\[O-])C(C)(C)CC(O)C#N (stereo not drawn)	GI50	15.9 µM (inactive)
CC1(C)O[C@@H]2[C@@H]3OC(=O)C[C@@H]3[C@@H](COCc3ccccc3)[C@@H]2O1	GI50	> 100 µM (inactive)

---

Overview of reported GI50 across a group of molecules:
# Tested on: Malme-3M
# assayProcedure: NCI tumour cell line growth inhibition, 48 h
Active and inactive are the calls of the source. No stated cut-off is given here; in the data, active = GI50 up to about 1.1 µM and inactive = higher.
measuredMetric: GI50

                                   molecule  measuredmetric               result
0  O=S(=O)(/N=S(/Nc1ccccc1)C(Cl)Cl)c1ccccc1 (stereo not given)            GI50  > 100 µM (inactive)
1        COc1cc(/C=C/C(=O)O)ccc1OS(=O)(=O)O            GI50  > 100 µM (inactive)
2  O=C(Nc1nnc(S)[nH]1)C(=O)C(c1cnc2ccc([N+](=O)[O-])cc2n1)[N+](=O)[O-] (stereo not given)            GI50  > 100 µM (inactive)
3  CCOC(=O)/C(C)=C\[C@@]1(C)O[C@@H](C)[C@@](C)(OC(C)=O)[C@@H]1OC(C)=O            GI50   57.3 µM (inactive)
4          O=C1/C(=C/c2ccccc2Cl)COc2ccccc21            GI50   15.5 µM (inactive)

---

# Test system: HL-60
# assayProcedure: NCI tumour cell line growth inhibition, 48 h
Active and inactive are the calls of the source. Cut-off read from the data, not from the text of the source: active = GI50 up to about 1.1 µM and inactive = higher.
measuredMetric: GI50

                                   compound               result
0  CCCC(=O)OCC1OC(n2cc(F)c(=O)[nH]c2=O)CC1OC(=O)CCC (stereo not given)    0.247 µM (active)
1  Cc1ccc(/N=C2/S/C(=C3/CCC=C3N3CCOCC3)N(c3ccc(Cl)cc3)/C2=N/c2ccc(C)cc2)cc1  > 100 µM (inactive)
2  CCC1(O)C(=O)OCc2c1cc1n(c2=O)Cc2cc3ccc(C=O)cc3nc2-1 (stereo not given)   1.36 µM (inactive)
3    NNS(=O)(=O)c1ccc(/C=C2\NC(=O)NC2=O)cc1  > 100 µM (inactive)
4  N=C(N)NS(=O)(=O)c1ccc(NC(=O)c2ccc3nc4ccccc4c(O)c3c2)cc1  > 100 µM (inactive)
5  CCOC(=O)c1cc2c3c(c(C(C)=O)c(OC)c2[nH]1)N(C(=O)CC)CC3    6.4 µM (inactive)
6               O=CCCCC(Sc1ccccc1)Sc1ccccc1    6.1 µM (inactive)
7  CC(=O)OCC1OC(n2nc(Cc3ccccc3)c(=S)[nH]c2=S)C(OC(C)=O)C(OC(C)=O)C1OC(C)=O (stereo not given)    0.583 µM (active)
8   COc1cc2oc(-c3ccc(O)cc3)cc(=O)c2c(OC)c1O   21.2 µM (inactive)
9                     CC(=O)CC(=O)N1CCOC1=O   > 10 µM (inactive)

---

# Tested on: OVCAR-3
# assayProcedure: NCI tumour cell line growth inhibition, 48 h
Calls of active or inactive are those of the source. No stated cut-off is given here; in the data, active = GI50 up to about 1.1 µM and inactive = higher. Non-standard residues stand in square brackets, D forms with d. Residues, ends and D or L forms follow the SMILES beside them. ξ: configuration not given here. *: point of attachment. ξF = NC(Cc1ccccc1)C(=O)O; Cbz = O=C(OCc1ccccc1)*; Aib = CC(C)(N)C(=O)O
Labels: YES for active, NO for inactive

compound	targetUnderTest	group
O=C(NC1C2CC3CC(C2)CC1C3)/C(Cl)=C1/Sc2ccccc2NC1=O (stereo not given)	OVCAR-3	NO
CC1CC2C(=O)N(c3ccccc3)C(=O)C2c2c1c1ccccc1n2Cc1ccccc1 (stereo not given)	OVCAR-3	NO
O=C(O)CCCCCOc1cccnc1/C=N/NC1=NCCN1	OVCAR-3	NO
COC(=O)c1ccccc1/C=C1/Cc2cccc(C)c2C1=O	OVCAR-3	NO
Oc1ccc(Br)cc1/C=N/c1ccc(Oc2ccc(/N=C/c3cc(Br)ccc3O)cc2)cc1	OVCAR-3	NO
CC(C)=NN/C(=N\c1ccc(Cl)cc1)NS(=O)(=O)c1ccc(Oc2cccc(Cl)c2C#N)cc1	OVCAR-3	NO
NC1=NC2(COC(c3ccccc3)(c3ccccc3)c3ccccc3)OC(COC(c3ccccc3)(c3ccccc3)c3ccccc3)C(O)C2O1 (stereo not given)	OVCAR-3	NO
O=S(=O)(/N=S(/Nc1ccccc1)C(Cl)Cl)c1ccccc1 (stereo not given)	OVCAR-3	NO
CCOC(=O)CNC(=O)C(Cc1ccccc1)NC(=O)C(C)(C)NC(=O)OCc1ccccc1 (stereo not given) (Cbz-[Aib]-[ξF]-Gly-OEt)	OVCAR-3	NO
CC1(C)O[C@@H]2[C@@H]3OC(=O)C[C@@H]3[C@@H](COCc3ccccc3)[C@@H]2O1	OVCAR-3	NO
CCSC1=N/C(=C\c2ccco2)C(=O)N1	OVCAR-3	NO
Cc1ccc(O)c(-c2cc(-c3cccc(Cl)c3)c(C#N)c(N)n2)c1	OVCAR-3	NO
Cc1cc(N(CCC#N)S(C)(=O)=O)ccc1C=O	OVCAR-3	NO
COC(=O)CCc1ccc2c(c1)CC1(C2)Cc2ccc(CCC(=O)OC)cc2C1	OVCAR-3	NO
O=C(O)CSc1nnc(-c2ccc(O)cc2)[nH]1	OVCAR-3	NO
O=C1Oc2ccccc2C(=O)/C1=C/N1C(=O)/C(=C/c2ccc3c(c2)OCO3)SC1=S	OVCAR-3	YES
CCOC(=O)/C(C)=C\[C@@]1(C)O[C@@H](C)[C@@](C)(OC(C)=O)[C@@H]1OC(C)=O	OVCAR-3	NO
CCCC/C=C/C=C/C=C/CCCCCCCC(=O)OCC(COC(=O)CCCCCCC/C=C/C1C=CC(CCCC)C(C(=O)O)C1C(=O)O)OC(=O)CCCCCCC/C=C/C=C/C=C/CCCC.OCCNCO (stereo not given)	OVCAR-3	NO
Clc1ccc2[nH]c(CC3CCCC3)nc2c1	OVCAR-3	NO
CC(=O)OC(/C=C1/C=CC(=O)O1)COC(=O)c1ccccc1 (stereo not given) [ACETYLMELODORINOL]	OVCAR-3	NO

From: ChEMBL document CHEMBL1201862
